System: Bacillus subtilis
Experiment: Minimum inhibitory concentration required for antibacterial activity against Bacillus subtilis
Type: functional
Measure name: MIC (mg/L)
Lab book: enter the figure in mg/L, no units written.

CCCCCCOC(=O)c1ccncc1 ... 50
CCCCCCCOC(=O)c1ccncc1 ... 24
CCCCC[C@H](C)COC(=O)c1ccncc1 [(S)-2-METHYLHEPTYL ISONICOTINATE] ... 20
CCCCOC(=O)c1ccncc1 ... 600
CCCCCOC(=O)c1ccncc1 ... 20

Param readout= MIC; system= Bacillus subtilis; entry= `CCCCCCCCCCCCCCCCCCOC(=O)c1ccncc1` ; returns value.
600

Param readout= MIC; system= Bacillus subtilis; entry= `CCCCCCCCOC(=O)c1ccncc1` ; returns value.
16

Param readout= MIC; system= Bacillus subtilis; entry= `CCCCC[C@@H](C)COC(=O)c1ccncc1` ; returns value.
16

---

Tested on: Thanatephorus cucumeris
Assay: Minimum fungicidal concentration required against Rhizoctonia solani
Assay type: functional
Output rule met for records whose MFC is lower than 40 µg/mL, rule not met for records at or above 40 µg/mL.

For orientation, consider the following solved cases.
CCCCCCCCOC(=O)c1ccncc1 ... rule met
CCCCOC(=O)c1ccncc1 ... rule not met
CCCCC[C@H](C)COC(=O)c1ccncc1 [(S)-2-METHYLHEPTYL ISONICOTINATE] ... rule met

Determine if `CCCCCCCCCCCCCCCCCCOC(=O)c1ccncc1` shows MFC strictly lower than 40 µg/mL.
rule not met

Determine if `CCCCCCOC(=O)c1ccncc1` shows MFC strictly lower than 40 µg/mL.
rule not met

Determine if `CCCCCCCOC(=O)c1ccncc1` shows MFC strictly lower than 40 µg/mL.
rule met

Determine if `CCCCC[C@@H](C)COC(=O)c1ccncc1` shows MFC strictly lower than 40 µg/mL.
rule met

Determine if `CCCCCOC(=O)c1ccncc1` shows MFC strictly lower than 40 µg/mL.
rule met
